- target.of.assay: Vasopressin V2 receptor (Rattus norvegicus, UniProt Q00788)
- Sequence (Q00788 whole entry): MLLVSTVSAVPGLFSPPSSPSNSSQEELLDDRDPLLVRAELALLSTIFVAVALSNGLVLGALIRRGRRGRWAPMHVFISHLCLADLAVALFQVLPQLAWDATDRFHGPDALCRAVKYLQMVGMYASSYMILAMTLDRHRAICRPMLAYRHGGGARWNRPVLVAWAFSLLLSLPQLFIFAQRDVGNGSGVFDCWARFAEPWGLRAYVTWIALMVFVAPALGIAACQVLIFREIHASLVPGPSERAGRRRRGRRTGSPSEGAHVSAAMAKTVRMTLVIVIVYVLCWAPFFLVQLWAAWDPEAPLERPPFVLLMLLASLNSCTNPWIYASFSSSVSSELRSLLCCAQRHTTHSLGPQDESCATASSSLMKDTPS
- assay.protocol: Displacement of P[3H]-AVP from isolated rat kidney medullary V2 receptor
reported.property: IC50 (nM)

Record excerpt, results attached:
molecule	target.of.assay	unit.symbol	IC50
Cc1ccc(F)cc1C(=O)N(CCCN(C)C)c1ccc(C(=O)N2Cc3cccn3Cc3ccccc32)cn1	Vasopressin V2 receptor (Rattus norvegicus, UniProt Q00788)	nM	290
O=C(Nc1ccc(C(=O)N2Cc3cccn3Cc3ccccc32)cn1)c1cc(Br)ccc1Cl	Vasopressin V2 receptor (Rattus norvegicus, UniProt Q00788)	nM	7.3
O=C(Nc1ccc(C(=O)N2Cc3cccn3Cc3ccccc32)cn1)c1cc(Cl)ccc1Cl	Vasopressin V2 receptor (Rattus norvegicus, UniProt Q00788)	nM	4.3
O=C(Nc1ccc(C(=O)N2Cc3cccn3Cc3ccccc32)cn1)c1ccccc1[N+](=O)[O-]	Vasopressin V2 receptor (Rattus norvegicus, UniProt Q00788)	nM	160
O=C(Nc1ccc(C(=O)N2Cc3cccn3Cc3ccccc32)cn1)c1cc(F)ccc1F	Vasopressin V2 receptor (Rattus norvegicus, UniProt Q00788)	nM	240

[A] Cc1ccc(F)cc1C(=O)Nc1ccc(C(=O)N2Cc3cccn3Cc3ccccc32)c(Cl)c1 [LIXIVAPTAN]
[B] Nc1ccccc1C(=O)Nc1ccc(C(=O)N2Cc3cccn3Cc3ccccc32)cn1
[C] O=C(Nc1ccc(C(=O)N2Cc3cccn3Cc3ccccc32)cn1)c1cc(-c2ccccn2)ccc1Cl
[D] O=C(Nc1ccc(C(=O)N2Cc3cccn3Cc3ccccc32)cn1)c1c(F)cccc1Cl
stdin: Please list these in order of increasing IC50. Thank you! Order the labels as requested and list them.
stdout: A, D, B, C
(A: 0.5 nM, D: 4 nM, B: 210 nM, C: 480 nM)

[P] O=C(Nc1ccc(C(=O)N2Cc3cccn3Cc3ccccc32)cn1)c1ccccc1-c1ccccc1
[Q] Cc1ccc(F)cc1C(=O)Nc1ccc(C(=O)N2Cc3ccc(CN(C)C)n3Cc3ccccc32)cn1
stdin: # compare IC50 for P vs Q ; return the one with the smaller value Please reply using the label of the selected record.
stdout: P

###

- target.of.assay: Vasopressin V1a receptor (Rattus norvegicus, UniProt P30560)
- assay.protocol: In vitro inhibition of (Phe-3,4,5 [3H]-) AVP binding towards isolated rat hepatic Vasopressin V1a receptor
reported.property: pIC50
pIC50 field: float, defined as -log10 of concentration (mol/L).

stdin: Consider the compound "Cc1ccccc1C(=O)Nc1ccc(C(=O)N2Cc3cccn3Cc3ccccc32)cn1" and give its measured pIC50.
stdout: 7.68

###

- System: Rattus norvegicus
- assay.protocol: Amount of urine output was measured in rat at a dose of 10 mg/kg/po
- Format: ADME, organism-based
- stated.conditions: in vivo
reported.property: Urine volume (ml 4hr-1)

[P] O=C(Nc1ccc(C(=O)N2Cc3cccn3Cc3ccccc32)cn1)c1cc(F)ccc1F
[Q] Cc1ccccc1C(=O)Nc1ccc(C(=O)N2Cc3cccn3Cc3ccccc32)cn1
[R] O=C(Nc1ccc(C(=O)N2Cc3cccn3Cc3ccccc32)cn1)c1cc(Cl)ccc1Cl
stdin: # ascending order, key=Urine volume Order the labels as requested and list them.
stdout: Q, P, R
(Q: 5.3 ml 4hr-1, P: 11.8 ml 4hr-1, R: 19.3 ml 4hr-1)

[a] O=C(Nc1ccc(C(=O)N2Cc3cccn3Cc3ccccc32)cn1)c1ccccc1Cl
[b] O=C(Nc1ccc(C(=O)N2Cc3cccn3Cc3ccccc32)cn1)c1ccccc1-c1ccccc1
[c] O=C(Nc1ccc(C(=O)N2Cc3cccn3Cc3ccccc32)cn1)c1ccc(F)cc1Cl
stdin: Rank the 3 compounds: largest Urine volume first, smallest last. Order the labels as requested and list them.
stdout: c, b, a
(c: 30.5 ml 4hr-1, b: 16.5 ml 4hr-1, a: 4 ml 4hr-1)

[I] O=C(Nc1ccc(C(=O)N2Cc3cccn3Cc3ccccc32)cn1)c1cc(Br)ccc1Cl
[II] Cc1ccc(F)cc1C(=O)Nc1ccc(C(=O)N2Cc3cccn3Cc3ccccc32)c(Cl)c1
stdin: Which one would you say has the larger Urine volume value: I , or II ? Please reply using the label of the selected record.
stdout: II
(II: 35 ml 4hr-1, I: 16.5 ml 4hr-1)

[a] O=C(Nc1ccc(C(=O)N2Cc3cccn3Cc3ccccc32)cn1)c1c(F)cccc1Cl
[b] Cc1c(F)cccc1C(=O)Nc1ccc(C(=O)N2Cc3cccn3Cc3ccccc32)cn1
stdin: # compare Urine volume for a vs b ; return the one with the smaller value Please reply using the label of the selected record.
stdout: a
(a: 15.8 ml 4hr-1, b: 34 ml 4hr-1)

###

- target.of.assay: Vasopressin V1a receptor (Rattus norvegicus, UniProt P30560)
- assay.protocol: Displacement of (Phe-3,4,5 [3H]-) AVP from isolated rat hepatic V1a receptor
pIC50: −log10 of the molar value.
reported.property: pIC50

compound	target.of.assay	pIC50
O=C(Nc1ccc(C(=O)N2Cc3cccn3Cc3ccccc32)cn1)c1c(F)cccc1Cl	Vasopressin V1a receptor (Rattus norvegicus, UniProt P30560)	7.40

[a] O=C(Nc1ccc(C(=O)N2Cc3cccn3Cc3ccccc32)cn1)c1cc(Cl)ccc1Cl
[b] O=C(Nc1ccc(C(=O)N2Cc3cccn3Cc3ccccc32)cn1)c1cc(-c2ccccn2)ccc1Cl
stdin: # compare pIC50 for a vs b ; return the one with the smaller value Please reply using the label of the selected record.
stdout: b

[a] Cc1ccc(F)cc1C(=O)Nc1ccc(C(=O)N2Cc3cccn3Cc3ccccc32)c(Cl)c1 [LIXIVAPTAN]
[b] O=C(Nc1ccc(C(=O)N2Cc3cccn3Cc3ccccc32)cn1)c1ccccc1[N+](=O)[O-]
[c] Cc1c(F)cccc1C(=O)Nc1ccc(C(=O)N2Cc3cccn3Cc3ccccc32)cn1
stdin: Please list these in order of increasing pIC50. Thank you! Order the labels as requested and list them.
stdout: b, a, c
(b: 6.04, a: 7.09, c: 8.05)

[P] O=C(Nc1ccc(C(=O)N2Cc3cccn3Cc3ccccc32)cn1)c1cc(Br)ccc1Cl
[Q] O=C(Nc1ccc(C(=O)N2Cc3cccn3Cc3ccccc32)cn1)c1ccccc1-c1ccccc1
[R] O=C(Nc1ccc(C(=O)N2Cc3cccn3Cc3ccccc32)cn1)c1cc(F)ccc1F
stdin: Please list these in order of increasing pIC50. Thank you! Order the labels as requested and list them.
stdout: R, P, Q
(R: 6.51, P: 7.09, Q: 7.52)

###

- target.of.assay: Vasopressin V1a receptor (Rattus norvegicus) (UniProt P30560)
- Sequence (P30560 whole entry, looked up): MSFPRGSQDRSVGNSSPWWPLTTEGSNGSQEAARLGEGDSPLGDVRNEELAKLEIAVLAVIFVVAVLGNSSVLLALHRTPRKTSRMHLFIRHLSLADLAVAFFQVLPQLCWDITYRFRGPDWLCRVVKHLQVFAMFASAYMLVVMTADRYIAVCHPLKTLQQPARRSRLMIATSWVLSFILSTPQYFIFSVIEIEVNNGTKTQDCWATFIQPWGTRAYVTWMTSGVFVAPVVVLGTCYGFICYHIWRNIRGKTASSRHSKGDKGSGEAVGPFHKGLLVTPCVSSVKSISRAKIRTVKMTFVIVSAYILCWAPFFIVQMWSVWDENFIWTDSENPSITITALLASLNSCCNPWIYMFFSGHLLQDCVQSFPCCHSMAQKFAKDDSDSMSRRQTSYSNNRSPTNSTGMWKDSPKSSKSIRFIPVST
- assay.protocol: In vitro inhibition of (Phe-3,4,5 [3H]-) AVP binding towards isolated rat hepatic V1a receptor at a dose of 10 uM
reported.property: inhibition (%)

[1] Cc1ccc(F)cc1C(=O)N(CCCN(C)C)c1ccc(C(=O)N2Cc3cccn3Cc3ccccc32)cn1
[2] Nc1ccccc1C(=O)Nc1ccc(C(=O)N2Cc3cccn3Cc3ccccc32)cn1
stdin: # compare inhibition for 1 vs 2 ; return the one with the smaller value Please reply using the label of the selected record.
stdout: 2
(2: 29%, 1: 68%)
